# target-or-system: KRas G12D (Homo sapiens, UniProt P01116, G12D)
# Sequence (P01116 1-169 isoform P01116-2 G12D): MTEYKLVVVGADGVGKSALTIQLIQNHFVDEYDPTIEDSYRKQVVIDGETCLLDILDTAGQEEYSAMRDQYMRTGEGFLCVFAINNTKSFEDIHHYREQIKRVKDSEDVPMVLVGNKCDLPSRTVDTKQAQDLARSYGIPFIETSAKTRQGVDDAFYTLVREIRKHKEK
# experiment-summary: biochemical
# setup-conditions: Binding to KRas (IC50 nM) G12D, TR-FRET displacement, KRas G12D
Consider the following compounds; for each one, report its IC50.
Answers are plain numbers, in nM.

Example cases with answers are listed next.
compound=CCc1c(F)ccc2cc(O)cc(N3CCc4c(nc(OC[C@@]56CCCN5C[C@H](F)C6)nc4N4CCCn5nc(NC(C)C)cc5C4)C3)c12 reported_property=IC50 uom=nM readout_number=4
compound="CCc1c(F)ccc2cc(O)cc(N3CCc4c(nc(OC[C@@]56CCCN5C[C@H](F)C6)nc4NCC4CC(=O)NC4=O)C3)c12 (stereo partly drawn)" reported_property=IC50 uom=nM readout_number=8
compound="C=C1CN2CCCC2(COc2nc3c(c(N4CCCC5(CCO5)C4)n2)CCN(c2cc(O)cc4ccc(F)c(CC)c24)C3)C1 (stereo not drawn)" reported_property=IC50 uom=nM readout_number=2
compound=Oc1cc(Cl)c(C2CC2)c(N2CCc3c(nc(OCC45CCCN4CCC5)nc3N3CCC[C@]4(C3)C[C@H](O)C4)C2)c1 reported_property=IC50 uom=nM readout_number=44

Answer for every listed entry: what is its IC50? The entries follow.
1. Oc1cc(Cl)c(C2CC2)c(N2CCc3c(nc(OCC45CCCN4CCC5)nc3N3CC4CC(O)C(C4)C3)C2)c1 (stereo not drawn)
2. C[C@@]1(O)CCCN(c2nc(OC[C@@]34CCCN3C[C@H](F)C4)nc3c2CCN(c2ccc(F)c4sc(N)c(C#N)c24)C3)C1
3. CCc1c(F)ccc2cc(O)cc(N3CCc4c(nc(OC[C@@]56CCCN5C[C@H](F)C6)nc4N4CCCn5nc(CN(C)C(=O)N(C)C)cc5C4)C3)c12

133
17
4
